System: glioma stem cells (U87MG SLC, U251 SLC, GSC2, GSC5)
procedure.text: Detection of cell viability by MTS assay
Format: cell-based, human
measurement.setup: Homo sapiens; four glioma stem cell strains (U87MG SLC, U251 SLC, GSC2, GSC5), after 48 hours treatment
measured.attribute: IC50

INSERT INTO measurements (smiles_representation, result) VALUES
  ('CC(C)(C)CC(C)(C)c1ccc(O)c(Cc2ccc(Cl)cc2Cl)c1', '7.65 to 10.5 µM');
